Molecular target: T1, FcRn-p3 fusion protein (human, UniProt P55899 24-297; P61769 21-119)
T1 construct: baculovirus expressed; coated on ELISA wells; not shown: amino terminal part of bacteriophage p3 protein and CVDE protein
T1 sequence (P55899 24-297, chain 1 of 2): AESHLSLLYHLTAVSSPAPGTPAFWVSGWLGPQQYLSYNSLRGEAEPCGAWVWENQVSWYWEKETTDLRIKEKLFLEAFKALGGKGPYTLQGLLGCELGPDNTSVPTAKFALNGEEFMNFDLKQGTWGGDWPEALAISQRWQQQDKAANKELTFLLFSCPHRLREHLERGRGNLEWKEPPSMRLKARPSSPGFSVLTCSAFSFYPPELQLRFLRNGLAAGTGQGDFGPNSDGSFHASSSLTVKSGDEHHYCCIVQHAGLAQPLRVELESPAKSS
T1 sequence (P61769 21-119, chain 2 of 2): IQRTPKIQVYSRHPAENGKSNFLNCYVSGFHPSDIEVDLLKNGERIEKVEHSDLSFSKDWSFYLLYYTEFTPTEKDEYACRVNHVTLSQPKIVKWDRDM
Assay: phage ELISA pH6 (est.)
readout_type: Ratio/Fc-WT (fold)
Record the value in fold, omitting the unit from your answer.

Example cases with answers are listed next.
[
  {
    "binder": "C6A_48 (other, EU numbering) CPPCTAPELLGGPSVFLFPPKPKDTLMISRTPEVTCVVEDVSHEDPEVKFNWYVDGVEVHNAKTKPREEQYNSTYRVVSVLTVLHQDWLNGKEYKCKVSNKALPAPIEKTISKAKGQPREPQVYTLPPSRDELTKNQVSLTCLVKGFYPSDIVVEWESNGQPENNYKTTPPVLDSDGSFFLYSKLTVDKSRWQQGNVFSCSVMHEALHSHYTQKSLSLSPGK",
    "result_number": 14.4
  },
  {
    "binder": "T6A_75 (other, EU numbering) CPPCTAPELLGGPSVFLFPPKPKDTLMISRTPEVTCVVVDVSHEDPEVKFNWYVDGVEVHNAKTKPREEQYNSTYRVVSVLTVLHQDWLDGKEYKCKVSNKALPAPIEKTISKAKGQPREPQVYTLPPSRDELTKNRVSLTCLVKGFYPSDIAVEWESNGQPENNYKTTPPVLDSDGSFFLYSKLTVDKSRWQQGNVFSCTVMHEALHYHYTQKSLSLSPGK",
    "result_number": 18.3
  },
  {
    "binder": "C6A_69 (other, EU numbering) CPPCPAPELLGGPSVFLFPPKPKDTLMISRTPEVTCVVVDVSHEDPEVKFNWYVDGVEVHNAKTKPREEQYNSTYRVVSVLAVLHQDWLDGKEYKCKVSNKALPVPIEKTISKAKGQPREPQVYTLPPSRDELTKNQVSLTCLVKGFYPSDIAVEWVSNGQPETNYKTTPPVLDSDGSFFLYSKLTVDKSRWQQGNVFSCSVMHEALHYHYTQKSLSLSPGK",
    "result_number": 28.4
  }
]

Incoming: Please give the documented Ratio/Fc-WT of T6A_85 (other, EU numbering) CPPCPAPELLGGPSVFLFPPKPKDALMISRTPEVTCVVVDVSHEDPEVKFNWYVDGVEVHNAKTKPREEQYNSTYRVVSVLTVLHQDWLDGKEYKCKVSSKALPVPIEKTISKAKGQPREPQVYTLPPSRDELTKNQVSLTCLVKGFYPSDIAVEWESNGQPENNYKTTPPVLDSDGSFFLYSKLTVDKSRWQQGNVFSCSVMHEALHYHYTQKSLSLSPGK
Outgoing: 16.3

Incoming: Please give the documented Ratio/Fc-WT of T4A_48 (other, EU numbering) CPPCPAPELLGGPSVFLFPPKPKDTLMISRTPEVTCVVVDVSHEDPEVKFNWYVDGVEVHNAKTKPREEQYNSTYRVVSVLTILHQDWLDGKEYKCKVSNKALPVPIEKTISKAKGQPREPQVYTLPPSRDELTKNQVSLTCLVKGFYPSDIAVEWVSNGQPENNYKTTPPVLDSDGSFFLYSKLTVDKSRWQQGNVFSCSVMHEALHYHYTQKSLSLSPGK
Outgoing: 14.5
